System: Kochia scoparia (KCHSC; Bassia scoparia)
Assay: Herbicidal pre-emergence action (A), 1280 g/ha
Assay type: in vivo
Conditions: visual grading after ca. 3 weeks vs untreated controls
Each entry below carries its recorded herbicidal effect KCHSC.
Give the quantity in %, number only.

**Query** herbicidal effect KCHSC lookup needed for Fc1cccc(-c2nc3ncsc3cc2Cl)c1 , thanks.
**Result** 100

**Query** // query: Clc1cc2scnc2nc1-c1sccc1Cl
**Result** 90

**Query** Now try CSc1nc2nc(-c3ccccc3C)c(C)cc2s1 .
**Result** 90

**Query** Please answer likewise for CCc1cc2scnc2nc1C12CCCCC1O2 (stereo not drawn)
**Result** 100

**Query** Check Cc1cc2sc(S)nc2nc1-c1ccccc1Cl too.
**Result** 90

**Query** Next: Fc1ccccc1-c1nc2nc(Cl)sc2cc1Br
**Result** 90
